biological target: T1, human FRα (Homo sapiens, UniProt P15328); assay: Biacore T200 surface plasmon resonance affinity; format: binding; settings: SPR 25° C.
T1 construct: CD33 leader (signal peptide) (N, cleaved yes); made in house; host or cells: in-house suspension-adapted CHO cell line
T1 sequence (P15328 with tags, fused parts or gaps): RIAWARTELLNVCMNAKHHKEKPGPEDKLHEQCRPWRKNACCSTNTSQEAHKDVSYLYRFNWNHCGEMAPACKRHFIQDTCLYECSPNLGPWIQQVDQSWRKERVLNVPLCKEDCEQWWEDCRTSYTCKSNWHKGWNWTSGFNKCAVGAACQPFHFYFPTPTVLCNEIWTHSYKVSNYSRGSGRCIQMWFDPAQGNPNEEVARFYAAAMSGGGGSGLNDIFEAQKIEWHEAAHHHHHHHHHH
reported.property: ka (M⁻¹ s⁻¹)
All answers are understood in M⁻¹ s⁻¹, so give the number only.

Entry under test: AB1370035: anti-FRα fully human IgG1 antibody; VH SEQ ID NO: 41, VL SEQ ID NO: 42 (antibody, V domains shown) VH: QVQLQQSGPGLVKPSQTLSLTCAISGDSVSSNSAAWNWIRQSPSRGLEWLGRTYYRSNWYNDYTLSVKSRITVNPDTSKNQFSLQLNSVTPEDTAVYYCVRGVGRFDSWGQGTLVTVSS VL: DIQMTQSPSTLSASVGDRVIITCRASQSISSWLAWYQQKPGKAPKLLIYKASSLESGVPSRFSGSGSGTEFTLTITSLQPDDFASYYCQEYKTYSIFTFGPGTKVDIK . Its ka was 568000

Values from patent US20230295293A1
